Listed here: items and their measured normalized growth.
Assay: chemical genetic growth profiling, strain panel (AID 1159580);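 further: tested at 20 µM; growth read once vehicle control cultures reached saturation at 30 °C; 1 = growth at the plate median or of vehicle wells; lower values mean less growth of the strain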
Assay conditions: S. cerevisiae deletion strains, growth OD, locus YDR195W, strain ref2
In all, about 5,500 compounds went through this assay and about 2,000 (36%) were called active. About 18% were inconclusive and are not listed. This is one part of the list.
Form field (numeric): enter value without unit.

Answered examples (3):
{"Compound": "CC(=O)O[C@H]1CC[C@@]2(C)C(=CC(=O)C3C4CCC(C(C)CCCC(C)C)[C@@]4(C)CCC32)C1 (some centres undefined)", "normalized growth": 0.977}
{"Compound": "CC(C)CCCC(C)C1CCC2C3CC(=O)[C@H]4C[C@@H](O)CC[C@]4(C)C3CC[C@]12C (some centres undefined)", "normalized growth": 1.01}
{"Compound": "C[n+]1ccccc1/C=N/O", "normalized growth": 0.999}

We next turn to a different compound, shown below.
May I ask what normalized growth has been recorded for O=C(O)c1ccc(S(=O)(=O)N(Cl)Cl)cc1 ?
0.996

###

Assay: chemical genetic growth profiling, strain panel (AID 1159580)
Assay conditions: S. cerevisiae deletion strains, growth OD, locus YER167W, strain BCK2, active compounds read low
The campaign covered roughly 5,500 compounds. About 2,000 (36%) were called active. Roughly 18% stayed inconclusive and do not appear here. This is one part of the list.
Consider the following compounds and their measured normalized growth readings.
API note: the answer field is a bare number with no unit suffix.

{"Compound": "CN(C)[C@@H]1C(=O)C(C(N)=O)=C(O)[C@@]2(O)C(=O)C3=C(O)c4c(O)ccc(Cl)c4[C@@H](O)[C@H]3C[C@@H]12", "Meas value": 1.01}
{"Compound": "COc1ccccc1OCC(O)CO (stereo unspecified)", "Meas value": 1}
{"Compound": "CCCSc1ccc2nc(NC(=O)OC)[nH]c2c1", "Meas value": 0.988}
{"Compound": "CN[C@@H]1[C@H](O)[C@H](NC)[C@H]2O[C@@]3(O)C(=O)C[C@@H](C)O[C@H]3O[C@@H]2[C@H]1O", "Meas value": 1.02}
{"Compound": "CC(=O)Oc1c(Cl)c(C)c2c(c1Cl)OC(=O)c1c(C)c(Cl)c(OC(C)=O)c(Cl)c1O2", "Meas value": 0.985}

Continue with the compound presented below.
What does the record list as normalized growth for CC(C)CCCC(C)C1CCC2C3CC[C@H]4C[C@@H](O)CC[C@]4(C)C3CC[C@]12C (stereo partly specified) ?
0.997

###

Overview of reported normalized growth across a group of molecules:
Assay: chemical genetic growth profiling, strain panel (AID 1159580)
Assay conditions: S. cerevisiae deletion strains, growth OD, locus YBR231C, strain swc5, active compounds read low
The campaign covered roughly 5,500 compounds. About 2,000 (36%) were called active. Another 18% or so got no clear call; they are omitted. The list shows a part of the results.

Record excerpt, results attached:
{"Molecule": "CCN(CC)CCOCCOC(=O)C1(c2ccccc2)CCCC1", "normalized growth": "0.982 (inactive)"}
{"Molecule": "NS(=O)(=O)c1cc2c(cc1Cl)NC(CSCc1ccccc1)=NS2(=O)=O", "normalized growth": "1.02 (inactive)"}
{"Molecule": "CC(C)=CC1C(C(=O)O)C1(C)C (stereo unspecified)", "normalized growth": "0.985 (inactive)"}
{"Molecule": "CCOC(=O)NNc1nncc2ccccc12", "normalized growth": "0.993 (inactive)"}
{"Molecule": "Cc1cc(=O)[nH]c(=S)[nH]1", "normalized growth": "0.989 (inactive)"}

Pending molecule:
Look at this molecule and give its reported normalized growth. CCN(CC)CCOC(=O)C1(C2CCCCC2)CCCCC1
0.998 (inactive)

###

Each record here notes measured normalized growth.
Assay: chemical genetic growth profiling, strain panel (AID 1159580);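 further: tested at 20 µM; growth read once vehicle control cultures reached saturation at 30 °C; 1 = growth at the plate median or of vehicle wells; lower values mean less growth of the strain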
Assay conditions: S. cerevisiae deletion strains, growth OD, locus YLR027C, strain aat2, active compounds read low
In all, about 5,500 compounds went through this assay and about 2,000 (36%) were called active. Another 18% or so got no clear call; they are omitted. This is one part of the list.
Just the number, please, no unit after it.

Guide cases for normalized growth, answers given:
{"Molecule": "CCOC(=O)NNc1nncc2ccccc12", "normalized growth": 1}
{"Molecule": "Cc1cn[nH]c1", "normalized growth": 1.01}
{"Molecule": "COc1ccccc1OCC(O)CO (configuration not stated)", "normalized growth": 1.01}

Name the reported normalized growth value associated with the molecule C[C@H](CCC(=O)O)[C@H]1CCC2C3C(=O)CC4CC(=O)CC[C@]4(C)C3CC(=O)[C@@]21C (some centres not stated)
0.993

Please give the measured normalized growth for this molecule: C=C1c2c(Cl)ccc(O)c2C(O)=C2C(=O)[C@]3(O)C(O)=C(C(N)=O)C(=O)[C@@H](N(C)C)[C@@H]3[C@@H](O)[C@H]12
1

// lookup normalized growth for NC(=O)NC(=O)Cc1ccccc1
0.988

Name the reported normalized growth value associated with the molecule CCCSc1ccc2nc(NC(=O)OC)[nH]c2c1
1

Which measured normalized growth value corresponds to CN(C)[C@@H]1C(=O)C(C(N)=O)=C(O)[C@@]2(O)C(=O)C3=C(O)c4c(O)ccc(Cl)c4[C@@H](O)[C@H]3C[C@@H]12 ?
1.01

Bench note: what normalized growth did CC(CCc1ccccc1)NCC(O)c1ccc(O)c(C(N)=O)c1 (configuration not stated) show?
0.992

Look at this molecule and give its reported normalized growth. CCC(C)C(=O)OC1[C@@H]2CC3=C4CC(=O)O[C@@H](c5ccoc5)[C@]4(C)CCC3[C@@](C)(C2=O)[C@@H](CC(=O)OC)C1(C)C (some centres not stated)
1.02

Look at this molecule and give its reported normalized growth. CC(C)CCCC(C)C1CCC2C3C[C@@H](O)[C@@]4(O)C[C@@H](O)CC[C@]4(C)C3CC[C@]12C (some centres not stated)
0.989

Which measured normalized growth value corresponds to CC(C)CCCC(C)C1CCC2C3=CC[C@H]4C[C@@H](O)CC[C@]4(C)C3CC[C@@]21C (some centres not stated) ?
0.982

Field request: normalized growth | item: CC(C)CCCC(C)[C@H]1CCC2C3CC=C4CC(=O)CC[C@]4(C)C3CC[C@@]21C (some centres not stated)
0.981

###

Assay: chemical genetic growth profiling, strain panel (AID 1159580);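 further: tested at 20 µM; growth read once vehicle control cultures reached saturation at 30 °C; 1 = growth at the plate median or of vehicle wells; lower values mean less growth of the strain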
Assay conditions: S. cerevisiae deletion strains, growth OD, locus YDR334W, strain swr1, active compounds read low
Screen size: about 5,500 compounds; about 2,000 (36%) were called active. Roughly 18% stayed inconclusive and do not appear here. This is one part of the list.
Endpoint: normalized growth
# answer = number (no unit)

Before answering, review these 5 worked examples.
{"Molecule": "CCOC(=O)[C@H](CCc1ccccc1)N[C@@H](C)C(=O)N1CCC[C@H]1C(=O)O", "normalized growth": 0.998}
{"Molecule": "CC1=CC(=O)c2ccccc2C1=O", "normalized growth": 1.01}
{"Molecule": "O=C1NC(O)=NC1(c1ccccc1)c1ccccc1", "normalized growth": 1.01}
{"Molecule": "CS(=O)(=O)c1ccc([C@@H](O)[C@@H](CO)NC(=O)C(Cl)Cl)cc1", "normalized growth": 1.02}
{"Molecule": "NCC(=O)c1ccccc1", "normalized growth": 0.999}

# get_value(readout='normalized growth', item= NC(=O)NC(=O)Cc1ccccc1 )
0.978

Please give the measured normalized growth for this molecule: CC(=O)c1cc(CC=C(C)C)c(O)c(CC=C(C)C)c1
1.01

normalized growth for CC(=O)O[C@@H]1CC2C(C)(C)C(=O)C=C[C@]2(C)C2CC[C@]3(C)C(=CC(=O)O[C@H]3c3ccoc3)[C@@]21C (stereo partly specified) ?
1.01

Recorded normalized growth for CO[C@H]1CC(O[C@@H]2/C(C)=C/C[C@@H]3C[C@@H](C[C@]4(CC[C@H](C)[C@@H](C5CCCCC5)O4)O3)OC(=O)[C@@H]3C=C(C)/C(=N\O)[C@H]4OC/C(=C\C=C\[C@@H]2C)[C@]43O)O[C@@H](C)C1O (stereo partly specified) , please?
1.02

Recorded normalized growth for CC(CCC(=O)O)[C@H]1CCC2C3CC[C@@H]4C[C@H](O)CC[C@]4(C)C3C=C[C@@]21C (stereo partly specified) , please?
0.991

Find the recorded normalized growth belonging to NCC(N)C(=O)c1ccccc1 (stereo unspecified) and report it.
1.02

###

Assay: chemical genetic growth profiling, strain panel (AID 1159580);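 further: tested at 20 µM; growth read once vehicle control cultures reached saturation at 30 °C; 1 = growth at the plate median or of vehicle wells; lower values mean less growth of the strain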
Assay conditions: S. cerevisiae deletion strains, growth OD, locus YGR078C, strain PAC10, active compounds read low
In all, about 5,500 compounds went through this assay and about 2,000 (36%) were called active. Not shown: some 18% with an inconclusive outcome. The list shows a part of the results.
# normalized growth per entry
A bare number is all that is needed in reply.

// worked examples, normalized growth included
{"Smiles notation": "CC(=O)Nc1ccc(S(=O)(=O)Nc2c(C)n(C)n(-c3ccccc3)c2=O)cc1", "normalized growth": 1.02}
{"Smiles notation": "Nc1ccc(C(=O)O)cc1", "normalized growth": 1}
{"Smiles notation": "Cc1cc(=O)oc2cc(O)c(O)cc12", "normalized growth": 0.983}
{"Smiles notation": "OC[C@H]1O[C@@](CO)(O[C@@H]2O[C@H](CO)[C@@H](O)[C@H](O)[C@H]2O)[C@@H](O[C@@H]2O[C@H](CO)[C@@H](O)[C@H](O)[C@H]2O)[C@@H]1O", "normalized growth": 1.04}

Turning to the following compound.
Give the measured normalized growth of C=C/C(C)=C/[C@@]1(C)SC(=O)C(C)=C1O .
1.01
